molecular target: Lysosomal acid glucosylceramidase (Homo sapiens) (UniProt P04062); test: Glucocerebrosidase-p2 (AID 348); conditions: purified GBA, blue fluorogenic substrate, 40 min; note: potency is the fitted concentration of half-maximal effect
Sequence (P04062 whole entry, looked up): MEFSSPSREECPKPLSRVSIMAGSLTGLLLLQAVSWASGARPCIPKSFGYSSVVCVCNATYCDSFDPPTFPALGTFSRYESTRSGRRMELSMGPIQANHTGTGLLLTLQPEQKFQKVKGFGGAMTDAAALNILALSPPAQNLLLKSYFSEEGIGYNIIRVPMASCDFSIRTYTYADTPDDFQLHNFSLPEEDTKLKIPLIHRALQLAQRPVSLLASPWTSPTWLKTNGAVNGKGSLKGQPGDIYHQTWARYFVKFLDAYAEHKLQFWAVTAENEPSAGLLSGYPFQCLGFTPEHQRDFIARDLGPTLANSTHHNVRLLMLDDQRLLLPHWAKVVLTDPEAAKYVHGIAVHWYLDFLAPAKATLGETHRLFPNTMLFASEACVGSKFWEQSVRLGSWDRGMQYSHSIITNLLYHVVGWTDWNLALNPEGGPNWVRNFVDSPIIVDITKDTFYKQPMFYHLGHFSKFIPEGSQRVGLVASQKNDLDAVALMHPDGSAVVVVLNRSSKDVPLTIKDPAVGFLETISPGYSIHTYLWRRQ
The source made the active and inactive calls. Cut-off read from the data, not from the text of the source: active = potency below about 10 µM; inactive = the rest.
MEASUREMENT_KIND: Potency

Worked examples follow.
>  <RECORD_SMILES>
COc1ccccc1CCn1c(=O)c(-c2ccccc2)nc2cncnc21

>  <Potency>
> 11.4 µM (inactive)

$$$$
>  <RECORD_SMILES>
Nc1nc(=O)c2[nH]cnc2n1O

>  <Potency>
> 11.4 µM (inactive)

$$$$
>  <RECORD_SMILES>
OCCSCc1ccccc1

>  <Potency>
> 11.4 µM (inactive)

$$$$
>  <RECORD_SMILES>
C[C@@H]1O[C@@H](O)[C@@H](O)[C@H](O)[C@H]1O

>  <Potency>
> 11.4 µM (inactive)

$$$$
>  <RECORD_SMILES>
CN(C)C[C@@H](O)c1ccc(Cl)c2ccccc12

>  <Potency>
> 11.4 µM (inactive)

$$$$
>  <RECORD_SMILES>
CCN(CC)CC[n+]1ccc2c(C)c3[nH]c4ccccc4c3c(C)c2c1

>  <Potency>
> 11.4 µM (inactive)

$$$$

Could you now look at the following compound, please?
input: Recorded Potency of O=C(Cn1ccc(=O)[nH]c1=O)Nc1ccc(C(=O)O)c(O)c1 , please.
output: > 11.4 µM (inactive)
